Assay: Approximate solubility of Compound I-2 (amorphous) at room temperature
Format: physicochemical
Conditions: Toluene
Residues, ends and D or L forms follow the SMILES beside them. *: point of attachment. Palmitoyl = CCCCCCCCCCCCCCCC(=O)*
Measurement label: solubility

CCCCCCCCCCCCCCCC(=O)N1CCC[C@H]1C(=O)N1CCC[C@H]1C(=O)NCC(=O)N[C@@H](Cc1ccc(O)cc1)C(=O)[O-].[K+] [Compound I-2 (amorphous)] (Palmitoyl-PPGY-OH) :: < 1000 µg/mL

---

Assay: Solubility of amorphous, Form A and Form E of Compound I-1 in water (shaken at 25° C., HPLC)
Type: physicochemical
Details: water; time point 24 hours
Residues, ends and D or L forms follow the SMILES beside them. *: point of attachment. Palmitoyl = CCCCCCCCCCCCCCCC(=O)*
Measurement label: solubility at 24 h

CCCCCCCCCCCCCCCC(=O)N1CCC[C@H]1C(=O)N1CCC[C@H]1C(=O)NCC(=O)N[C@@H](Cc1ccc(O)cc1)C(=O)[O-].[Na+] [Compound I-1 (Amorphous)] (Palmitoyl-PPGY-OH) :: ~180 mg/mL

---

Test: Approximate solubility of Compound I-1-Acid in different solvents (manual dilution, visual observation)
Type: physicochemical
Details: Methyl isobutyl ketone; room temperature
Method: The solubility test was conducted by manual dilution combined with visual observation. As shown below, Compound I-1-Acid has poor solubility (<1 mg/mL) in most organic solvents and water (Table 1).
Residues, ends and D or L forms follow the SMILES beside them. *: point of attachment. Palmitoyl = CCCCCCCCCCCCCCCC(=O)*
Measurement label: solubility

CCCCCCCCCCCCCCCC(=O)N1CCC[C@H]1C(=O)N1CCC[C@H]1C(=O)NCC(=O)N[C@@H](Cc1ccc(O)cc1)C(=O)O [Compound I-1-Acid] (Palmitoyl-PPGY-OH) :: < 1000 µg/mL

---

Experiment: Aqueous solubility of Compound I-1 in the presence of excipients
Format: physicochemical
Conditions: water with Meglumine 10% (w/v), 25° C.
Residues, ends and D or L forms follow the SMILES beside them. *: point of attachment. Palmitoyl = CCCCCCCCCCCCCCCC(=O)*
Measurement label: solubility at 24 h

CCCCCCCCCCCCCCCC(=O)N1CCC[C@H]1C(=O)N1CCC[C@H]1C(=O)NCC(=O)N[C@@H](Cc1ccc(O)cc1)C(=O)[O-].[Na+] [Compound I-1] (Palmitoyl-PPGY-OH) :: > 270 mg/mL

---

Assay: Approximate solubility of Compound I-1 (amorphous) in different solvents (manual dilution, visual observation)
Assay type: physicochemical
Conditions: Water, ambient laboratory temperature
Residues, ends and D or L forms follow the SMILES beside them. *: point of attachment. Palmitoyl = CCCCCCCCCCCCCCCC(=O)*
Measurement label: solubility

CCCCCCCCCCCCCCCC(=O)N1CCC[C@H]1C(=O)N1CCC[C@H]1C(=O)NCC(=O)N[C@@H](Cc1ccc(O)cc1)C(=O)[O-].[Na+] [Compound I-1 (Amorphous)] (Palmitoyl-PPGY-OH) :: > 100 mg/mL

---

Assay: Approximate solubility of Compound I-1-Acid in different solvents (manual dilution, visual observation)
Format: physicochemical
Conditions: Methyl t-butyl ether; room temperature
Residues, ends and D or L forms follow the SMILES beside them. *: point of attachment. Palmitoyl = CCCCCCCCCCCCCCCC(=O)*
Measurement label: solubility

CCCCCCCCCCCCCCCC(=O)N1CCC[C@H]1C(=O)N1CCC[C@H]1C(=O)NCC(=O)N[C@@H](Cc1ccc(O)cc1)C(=O)O [Compound I-1-Acid] (Palmitoyl-PPGY-OH) :: < 1000 µg/mL

// provenance: patent US11739120B2
